Molecular target: human URAT1 (Homo sapiens)
Construct: Full-length cDNA of human URAT1 (hURAT1)
Sequence (Q96S37 1-553): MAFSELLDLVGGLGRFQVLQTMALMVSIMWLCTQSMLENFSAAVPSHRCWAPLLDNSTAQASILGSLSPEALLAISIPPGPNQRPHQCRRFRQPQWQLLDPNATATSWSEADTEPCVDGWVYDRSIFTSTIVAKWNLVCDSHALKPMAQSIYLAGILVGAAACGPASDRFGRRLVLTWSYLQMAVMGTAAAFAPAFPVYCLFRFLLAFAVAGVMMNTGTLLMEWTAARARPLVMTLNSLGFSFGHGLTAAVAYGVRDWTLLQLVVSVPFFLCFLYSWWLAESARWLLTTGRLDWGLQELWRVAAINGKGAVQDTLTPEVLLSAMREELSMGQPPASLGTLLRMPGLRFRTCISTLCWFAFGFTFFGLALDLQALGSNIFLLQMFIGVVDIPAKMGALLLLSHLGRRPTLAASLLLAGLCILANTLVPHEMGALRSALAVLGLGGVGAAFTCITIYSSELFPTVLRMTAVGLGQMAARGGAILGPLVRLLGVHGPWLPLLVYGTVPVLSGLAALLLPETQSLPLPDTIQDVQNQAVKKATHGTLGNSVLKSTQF
Assay: Test for inhibition of uric acid transport using human URAT1-expressing cells;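 note: three stars up to 0.2 µM two stars 0.2-2 µM one star 2-20 µM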
Assay type: cell-based
Conditions: HEK 293 cells expressing human URAT1; 14C-labeled uric acid 25 μM; uptake 37° C. for 5 min
Measurement type: Inhibitory Activity (IC50 of uric acid transport inhibition)

{"columns": ["Compound", "Reported value"],
 "data": [
  ["Cc1nc(-c2cncc(Cl)c2)n(Cc2cccc3ccsc23)c1C(=O)O [Compound A233]", "* * *"],
  ["Cc1nc(-c2cccnc2)n(Cc2cc(Cl)ccc2F)c1C(=O)O [Compound A42]", "* *"],
  ["Cc1cncc(-c2nc(C)c(C(=O)O)n2Cc2cc(Cl)sc2Cl)c1 [Compound A227]", "* * *"],
  ["Cc1cncc(-c2nc(C)c(C(=O)O)n2Cc2cc(Cl)ccc2Cl)c1 [Compound A156]", "* * *"],
  ["Clc1ccc(Cl)c(Cn2c(-c3nnn[nH]3)cnc2-c2cccnc2)c1 [Compound A110]", "* *"]
]}

---

molecular target: human URAT1 (Homo sapiens); construct: Full-length cDNA of human URAT1 (hURAT1); assay: Test for inhibition of uric acid transport using human URAT1-expressing cells;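 note: three stars up to 0.2 µM two stars 0.2-2 µM one star 2-20 µM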; assay type: cell-based; settings: HEK 293 cells expressing human URAT1; 14C-labeled uric acid 25 μM; uptake 37° C. for 5 min
Measurement type: Inhibitory Activity (IC50 of uric acid transport inhibition)

{"columns": ["Compound", "Target", "Reported value"],
 "data": [
  ["Cc1nc(-c2cncc(C(F)(F)F)c2)n(Cc2csc3cccc(Cl)c23)c1C(=O)O", "human URAT1 (Homo sapiens)", "* * *"],
  ["O=C(O)c1c(C2CC2)nc(-c2cccnc2)n1Cc1cccc2ccsc12", "human URAT1 (Homo sapiens)", "* *"],
  ["O=C(O)c1c(CN2CCCCC2)nc(-c2cncc(Cl)c2)n1Cc1cc(Cl)ccc1Cl", "human URAT1 (Homo sapiens)", "* * *"],
  ["Cc1ccc(C)c(Cn2c(-c3cncc(Cl)c3)nc(C)c2C(=O)O)c1", "human URAT1 (Homo sapiens)", "* * *"],
  ["Cc1cncc(-c2ccc(C(=O)NS(=O)(=O)C3CC3)n2Cc2cc(Cl)ccc2Cl)c1", "human URAT1 (Homo sapiens)", "* * *"],
  ["O=C(O)c1c(-c2ccccc2)nc(-c2cccnc2)n1Cc1cc(Cl)ccc1Cl", "human URAT1 (Homo sapiens)", "* * *"],
  ["Cc1cncc(-c2ccc(/C=C/C(=O)O)n2Cc2cc(Cl)ccc2Cl)c1", "human URAT1 (Homo sapiens)", "* * *"],
  ["CN1CCN(Cc2nc(-c3cncc(Cl)c3)n(Cc3cc(Cl)ccc3Cl)c2C(=O)O)CC1", "human URAT1 (Homo sapiens)", "* * *"],
  ["Cc1nc(-c2cccnc2)n(Cc2ccc(Cl)c(Cl)c2)c1C(=O)O", "human URAT1 (Homo sapiens)", "* *"],
  ["Cc1cncc(-c2ccc(C(=O)O)n2Cc2cccc3ccsc23)c1", "human URAT1 (Homo sapiens)", "* * *"],
  ["O=C(O)c1ccc(-c2cccnc2)n1Cc1csc2cccc(Br)c12", "human URAT1 (Homo sapiens)", "* * *"],
  ["Cc1cncc(-c2nc(C)c(C(=O)O)n2Cc2sc(Cl)cc2Cl)c1", "human URAT1 (Homo sapiens)", "* *"],
  ["Cc1nc(-c2cncc(F)c2)n(Cc2cc(Cl)ccc2Cl)c1C(=O)O", "human URAT1 (Homo sapiens)", "* * *"],
  ["Cc1nc(-c2cncc(Cl)c2)n(Cc2csc3ccccc23)c1C(=O)O", "human URAT1 (Homo sapiens)", "* *"],
  ["O=C(O)c1cnc(-c2cncc(Cl)c2)n1Cc1cc(Cl)ccc1Cl", "human URAT1 (Homo sapiens)", "* * *"],
  ["CS(=O)(=O)NC(=O)c1ccc(-c2cccnc2)n1Cc1cccc2ccccc12", "human URAT1 (Homo sapiens)", "* * *"],
  ["Cc1nc(-c2cccnc2)n(Cc2cccc(Br)c2)c1C(=O)O", "human URAT1 (Homo sapiens)", "* *"],
  ["O=C(O)c1c(Oc2ccc(F)cc2)nc(-c2cccnc2)n1Cc1cc(Cl)ccc1Cl", "human URAT1 (Homo sapiens)", "* * *"],
  ["O=C(O)c1c(C(F)F)nc(-c2cncc(Cl)c2)n1Cc1cc(Cl)ccc1Cl", "human URAT1 (Homo sapiens)", "* * *"],
  ["Cc1nc(-c2cncc(Cl)c2)n(C(C)c2cc(Cl)ccc2Cl)c1C(=O)O (stereo not shown)", "human URAT1 (Homo sapiens)", "* *"],
  ["CC(C)c1nc(-c2cccnc2)n(Cc2csc3cccc(C(F)(F)F)c23)c1C(=O)O", "human URAT1 (Homo sapiens)", "* * *"],
  ["CCC(O)(CC)c1nc(-c2cccnc2)n(Cc2cc(Cl)ccc2Cl)c1C(=O)O", "human URAT1 (Homo sapiens)", "* *"],
  ["O=C(O)c1c(CN2CCCC2)nc(-c2cncc(Cl)c2)n1Cc1cc(Cl)ccc1Cl", "human URAT1 (Homo sapiens)", "* * *"],
  ["Cc1nc(-c2cccnc2)n(Cc2cc(F)cc(Cl)c2)c1C(=O)O", "human URAT1 (Homo sapiens)", "* *"],
  ["Cc1nc(-c2cccnc2)n(Cc2csc3cccc(C(F)(F)F)c23)c1C(=O)O", "human URAT1 (Homo sapiens)", "* *"],
  ["O=C(O)c1c(C2CC2)nc(-c2cncc(F)c2)n1Cc1cc(Cl)ccc1Cl", "human URAT1 (Homo sapiens)", "* * *"],
  ["Cc1nc(Oc2cncc(Br)c2)n(Cc2cc(Cl)ccc2Cl)c1C(=O)O", "human URAT1 (Homo sapiens)", "* * *"],
  ["CC(C)(Sc1ncc(-c2cncc(Cl)c2)n1Cc1cc(Cl)ccc1Cl)C(=O)O", "human URAT1 (Homo sapiens)", "* *"],
  ["O=C(O)c1c(C(F)(F)F)nc(-c2cccnc2)n1Cc1csc2cccc(Br)c12", "human URAT1 (Homo sapiens)", "* *"],
  ["Cc1nc(-c2cccnc2)n(Cc2cc(C(F)(F)F)ccc2C(F)(F)F)c1C(=O)O", "human URAT1 (Homo sapiens)", "* *"],
  ["COc1ccc(-c2nc(C)c(C(=O)O)n2Cc2cc(Cl)ccc2Cl)cn1", "human URAT1 (Homo sapiens)", "* *"],
  ["CCc1nc(-c2cncc(F)c2)n(Cc2cccc3ccccc23)c1C(=O)O", "human URAT1 (Homo sapiens)", "* *"],
  ["Cc1ccc(C)c(Cn2c(-c3ccncc3)nc(C)c2C(=O)O)c1", "human URAT1 (Homo sapiens)", "* *"],
  ["Cc1nc(-c2cncc(C#N)c2)n(Cc2cc(Cl)ccc2Cl)c1C(=O)O", "human URAT1 (Homo sapiens)", "* *"]
]}

---

Molecular target: human URAT1 (Homo sapiens)
Construct: Full-length cDNA of human URAT1 (hURAT1)
Sequence (Q96S37 1-553): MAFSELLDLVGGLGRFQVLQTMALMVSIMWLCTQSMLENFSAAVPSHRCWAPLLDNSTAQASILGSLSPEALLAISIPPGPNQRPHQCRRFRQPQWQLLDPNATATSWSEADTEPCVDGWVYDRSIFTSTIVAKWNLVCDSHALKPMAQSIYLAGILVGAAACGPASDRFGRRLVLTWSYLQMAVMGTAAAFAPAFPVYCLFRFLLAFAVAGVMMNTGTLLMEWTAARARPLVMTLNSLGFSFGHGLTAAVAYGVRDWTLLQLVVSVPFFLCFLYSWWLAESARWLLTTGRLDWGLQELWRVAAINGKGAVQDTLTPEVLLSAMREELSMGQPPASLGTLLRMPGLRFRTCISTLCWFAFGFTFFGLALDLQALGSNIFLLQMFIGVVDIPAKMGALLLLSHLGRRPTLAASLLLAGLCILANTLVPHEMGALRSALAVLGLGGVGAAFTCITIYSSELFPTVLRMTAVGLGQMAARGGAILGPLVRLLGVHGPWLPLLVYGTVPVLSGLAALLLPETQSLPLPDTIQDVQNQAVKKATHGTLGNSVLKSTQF
Test: Test for inhibition of uric acid transport using human URAT1-expressing cells;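 note: three stars up to 0.2 µM two stars 0.2-2 µM one star 2-20 µM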
Type: cell-based
Details: HEK 293 cells expressing human URAT1; 14C-labeled uric acid 25 μM; uptake 37° C. for 5 min
Measurement type: Inhibitory Activity (IC50 of uric acid transport inhibition)

{"columns": ["Molecule", "Reported value"],
 "data": [
  ["Cc1ccc(-c2nc(C)c(C(=O)O)n2Cc2cc(Cl)ccc2Cl)cn1 [Compound A159]", "* *"],
  ["O=C(O)c1c(C2CC2)nc(-c2cncc(Cl)c2)n1Cc1cc(Cl)ccc1Cl [Compound A147]", "* * *"],
  ["N#Cc1nc(-c2cccnc2)n(Cc2cc(Cl)ccc2Cl)c1C(=O)O [Compound A101]", "* * *"],
  ["O=C(NS(=O)(=O)C1CC1)c1ccc(-c2cccnc2)n1Cc1cc(Cl)ccc1Cl [Compound B31]", "* * *"],
  ["CC(C)(O)c1nc(-c2cncc(F)c2)n(Cc2cc(Cl)ccc2Cl)c1C(=O)O [Compound A212]", "* * *"],
  ["Cc1cccc2scc(Cn3c(C(=O)O)ccc3-c3cccnc3)c12 [Compound B7]", "* * *"],
  ["O=C(O)c1ccc(-c2cncc(F)c2)n1Cc1cccc2ccsc12 [Compound B22]", "* * *"],
  ["Cc1nc(-c2cccnc2)n(Cc2csc3cccc(Cl)c23)c1C(=O)O [Compound A7]", "* *"],
  ["Cc1ccc(Oc2nc(-c3cccnc3)n(Cc3cc(Cl)ccc3Cl)c2C(=O)O)cc1 [Compound A99]", "* * *"],
  ["O=C(O)c1c(C2CC2)nc(-c2cccnc2)n1Cc1cc(Cl)ccc1Cl [Compound A15]", "* * *"],
  ["Cc1nc(-c2cncc(Cl)c2)n(Cc2csc3cccc(Cl)c23)c1C(=O)O [Compound A142]", "* * *"],
  ["Cc1nc(-c2cncc(Cl)c2)n(Cc2cc(C(F)(F)F)ccc2C(F)(F)F)c1C(=O)O [Compound A173]", "* * *"],
  ["Cc1ccncc1Oc1nc(C)c(C(=O)O)n1Cc1cc(Cl)ccc1Cl [Compound A256]", "* * *"],
  ["CCCN1CCN(Cc2nc(-c3cncc(Cl)c3)n(Cc3cc(Cl)ccc3Cl)c2C(=O)O)CC1 [Compound A202]", "* * *"],
  ["Cc1nc(-c2cncc(F)c2)n(Cc2cc(C(F)(F)F)ccc2C(F)(F)F)c1C(=O)O [Compound A170]", "* *"],
  ["CC(C)c1nc(-c2cncc(Cl)c2)n(Cc2cccc3ccsc23)c1C(=O)O [Compound A235]", "* * *"],
  ["Cc1cncc(-c2nc(C)c(C(=O)O)n2Cc2cc(C)ccc2Cl)c1 [Compound A231]", "* * *"]
]}
